- Tested on: KM12 colon
- protocol_text: NCI tumour cell line growth inhibition, 48 h
assay_readout: log10 of TGI (log10 of the value in µM)

[
  {
    "molecule": "Cc1ccccc1CNc1c2ccccc2nc2ccccc12",
    "log10 of TGI": 1.00
  },
  {
    "molecule": "Clc1cccc(C2SCc3nc4ccccc4n32)c1 (stereo not drawn)",
    "log10 of TGI": 1.70
  },
  {
    "molecule": "Cc1ccc(O)cc1Nc1ccnc2cc(-c3ccccn3)ccc12",
    "log10 of TGI": 0.82
  },
  {
    "molecule": "O=C1C2C(C(=O)N1CC[Se][Se]CCN1C(=O)C3C(C1=O)[C@H]1C=C[C@@H]3C1)[C@H]1C=C[C@@H]2C1 (stereo partly drawn)",
    "log10 of TGI": 1.01
  },
  {
    "molecule": "CCOC(=O)C1=C(C)N(CC(C)C)C2(O)C(OC)CC(=O)C3C(=O)N(c4ccccc4)C(=O)C132 (stereo not drawn)",
    "log10 of TGI": 1.95
  },
  {
    "molecule": "NC(N)=N/N=C/c1c(-c2ccc(Cl)cc2)nc2sc(Cl)cn12",
    "log10 of TGI": 0.34
  }
]

====

Listed here are molecules together with their documented TGI.
- Test system: SF-268 CNS
- protocol_text: NCI tumour cell line growth inhibition, 48 h

[
  {
    "molecule": "CC(C)c1cc(C(C)C)c(Cl)c(Cl)c1O (tested in a mixture with another compound)",
    "TGI": "42.4 µM"
  },
  {
    "molecule": "Cc1cc(/N=C/c2ccc(Cl)cc2)n(-c2ccccc2)n1",
    "TGI": "> 100 µM"
  },
  {
    "molecule": "COc1cc2c3c(n(CCCN4CCSCC4)c(=O)c2cc1OC)-c1cc2c(cc1C3=O)OCO2",
    "TGI": "> 100 µM"
  },
  {
    "molecule": "CC(=O)OC1CC[C@@]2(C)C(=CC[C@@H]3[C@@H]2CC[C@]2(C)C(OC(C)=O)[C@H](n4ccnc4)C[C@@H]32)C1 (some centres undefined)",
    "TGI": "> 100 µM"
  },
  {
    "molecule": "NC(N)=N/N=C\\c1c(-c2ccccc2)nc2sccn12",
    "TGI": "29.9 µM"
  },
  {
    "molecule": "O=C(Nc1cccc(-n2cc(-c3ccncc3)c(-c3ccc(O)c(Cl)c3)n2)c1)Nc1ccc(Cl)c(Cl)c1",
    "TGI": "16.6 µM"
  },
  {
    "molecule": "CC1=C2CC(C)(C)CC(=O)C2(C)CCC1=O (centres undefined)",
    "TGI": "> 100 µM"
  },
  {
    "molecule": "CCC1=C(c2ccc(OC)cc2)CC[C@]2(CCNC2=O)[C@@H]1C",
    "TGI": "> 100 µM"
  },
  {
    "molecule": "Nc1ncnc2c1ncn2CCOC(c1ccccc1)P(=O)(O)O (centres undefined)",
    "TGI": "> 100 µM"
  },
  {
    "molecule": "CC1=CC(=O)c2c(O)c3c(c(O)c2C1=O)C1C(O)C(C3=O)C23C(=O)c4c(O)c(C)cc(O)c4C(O)=C2C(=O)CC(O)C13 (centres undefined)",
    "TGI": "7.54 µM"
  },
  {
    "molecule": "CC1=NN(c2nc(N)nc(/C=C\\c3ccccc3)n2)C(C)(C)C1",
    "TGI": "24.4 µM"
  },
  {
    "molecule": "C=CC(C)(O)CCC1C(=C)C(O)CC2C(C)(C)CCCC12C (centres undefined)",
    "TGI": "38 µM"
  },
  {
    "molecule": "O=C(CCC(=O)C1Cc2ccccc2C1=O)Nc1cccc(C(F)(F)F)c1 (centres undefined)",
    "TGI": "> 100 µM"
  },
  {
    "molecule": "O=S(=O)(O)c1ccc2c(N=Nc3c(O)ccc4ccccc34)cccc2c1",
    "TGI": "> 100 µM"
  },
  {
    "molecule": "CCOP(=O)(/C=C\\n1ccc(=O)[nH]c1=O)OCC",
    "TGI": "> 100 µM"
  },
  {
    "molecule": "COc1cccc(/C=C2/S/C(=N/Nc3nc(C)c(C(C)=O)s3)NC2=O)c1O",
    "TGI": "> 100 µM"
  },
  {
    "molecule": "O=C(NN1C(=O)C(Cl)C1c1c(O)ccc2ccccc12)c1ccccc1O (centres undefined)",
    "TGI": "> 100 µM"
  },
  {
    "molecule": "Clc1cccc(C2SCc3nc4ccccc4n32)c1 (centres undefined)",
    "TGI": "> 100 µM"
  },
  {
    "molecule": "COC(=O)[C@]1(C)[C@H]2C[C@H]3O[C@H]4[C@H](O)[C@@H](O)OC(CC(O)C(C5=CC(=O)OC5)C(C5=CC(=O)OC5)C(O)CC56CCCCC7[C@@H](C)[C@H](C[C@H]8[C@](C)(C(=O)OC)[C@H](O)CC[C@]78C)O[C@H]([C@@H](O)[C@H](O)O5)[C@H]6O)(CCCCC([C@@H]3C)[C@]2(C)CC[C@@H]1O)[C@H]4O (some centres undefined)",
    "TGI": "0.212 µM"
  }
]
